target: UniProt:P10635; assay: In vitro CYP inhibition, 2D6; type: in vitro ADME
Sequence (P10635 whole entry): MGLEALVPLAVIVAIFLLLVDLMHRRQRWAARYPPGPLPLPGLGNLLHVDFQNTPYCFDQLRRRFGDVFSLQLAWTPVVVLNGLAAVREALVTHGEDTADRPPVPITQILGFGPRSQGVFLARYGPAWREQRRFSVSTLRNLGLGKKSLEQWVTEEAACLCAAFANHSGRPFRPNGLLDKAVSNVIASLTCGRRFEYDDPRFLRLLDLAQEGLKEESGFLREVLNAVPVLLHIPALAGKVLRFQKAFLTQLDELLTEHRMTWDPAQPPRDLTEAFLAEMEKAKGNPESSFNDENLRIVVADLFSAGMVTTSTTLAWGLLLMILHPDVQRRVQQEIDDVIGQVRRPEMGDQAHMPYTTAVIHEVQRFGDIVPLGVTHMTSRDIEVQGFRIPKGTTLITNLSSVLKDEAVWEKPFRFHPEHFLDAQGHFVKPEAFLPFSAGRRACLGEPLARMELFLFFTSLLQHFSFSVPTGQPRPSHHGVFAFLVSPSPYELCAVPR
assayMetric: inhibition at 10 min, 10 µM

1) Cc1nc(N)c2c(F)c(F)c(SC3CCCCC3)c(F)c2n1 [DMU759]: 14.5%

###

System: HepG2
Assay: Drug sensitivity assay, HepG2 cells
Format: cell-based
Conditions: Homo sapiens, HepG2; read-out: EC50 value
Description: Human HepG2 cells (ECACC 85011430) were cultivated at 37°C in minimal essential medium (MEM) supplemented with GlutaMax (1×, Thermo Fisher), 10% (v/v) fetal bovine serum (FBS), MEM non-essential amino acids (1×, Sigma) and in the presence of 5% CO2, as previously described ([29]). Cells were passaged twice weekly through detachment of adherent cells with trypsin/EDTA (Sigma) and subsequent dilution into fresh medium. […]
pEC50: −log10 of the molar value.
assayMetric: pEC50

1) Cc1nc(N)c2c(F)c(F)c(SC3CCCCC3)c(F)c2n1: 4.77
